- Test system: MS2 coat protein
- assay_info: apparent KD of MS2 coat protein; designed switch direction (-1 OFF switch, 1 ON switch): -1; higher = weaker reporter binding
- condition_info: input ligand: FMN 200 uM
Catalogue of apparent KD of MS2 coat protein values
quantity_kind: apparent KD of MS2 coat protein (µM)

>>> result("AAGUAGUGACAGGAUAUUGUUCAUGAUAUGGAACAAGAAGGGUUAACAUGAGGAUCACCCAUGUAUCCUCCGUG [Eternabot (L2) Solution 14] (Eterna round: R97, puzzle: Exclusion 6)")
0.401
>>> result("UAUACAAAAGAUACCUCGUGACAUGAGGAUCACCCAUGUUUUGAGGAUAUCAGACUUCAUGGUCAUGAGAAGGCAGAGCAUGAU [Tireala] (Eterna round: R96, puzzle: Exclusion NG 3)")
0.0204
>>> result("AGUAACCGUCACGAAAGUGAUGGUUACACAAGCAAAUGUACAUGAGGAUCACCCAUGUCCUCAUUUGUUCGUCUUAU [Sensor 3 - 47] (Eterna round: R96, puzzle: Sensor v3, turn-off variant 2)")
0.101
>>> result("AAACGGCAGGGAGGAUAUGCUUACCUGGGUCGUCUUCAAACAUGAGGAUCACCCAUGUAGUCGACGCAGAAGGCCCUCAAAGCC [JL ViennaUCT Ontiis mod] (Eterna round: R96, puzzle: Exclusion NG 2)")
0.144
>>> result("AAUUAUUGAUGAGGAUAUUGUGGUGAAACACGACAAGAAGGCAUUUUUCACAUGAGGAUCACCCAUGUGAGCCUUGUGCAUAUA [Ex NG1 #62] (Eterna round: R96, puzzle: Exclusion NG 1)")
0.0173

These data points were gathered from the supplement of paper PMC9170038.
